- test-method-notes: Phase 1a single-dose study in humans, Stage 1: pharmacokinetics
- Format: in vivo, human
- condition-context: both sexes, human, plasma, oral; Cohort 4 (300 mg); mean (SD); read-out: Tmax
endpoint-name: Tmax

>  <structure-as-smiles>
NC(=O)[C@H]1CCN(c2ncnc(N)c2F)C[C@@H]1N1CCC[C@@H](Nc2cc(Cl)cc(C(F)(F)F)c2)C1=O

>  <observed-result>
1.5 h

$$$$

----------
- test-method-notes: Phase 1a single-dose study in humans, Stage 1: pharmacokinetics
- Format: in vivo, human
- condition-context: both sexes, human, plasma; all dose cohorts, oral; range: 0.5-3.0; read-out: median Tmax

>  <structure-as-smiles>
NC(=O)[C@H]1CCN(c2ncnc(N)c2F)C[C@@H]1N1CCC[C@@H](Nc2cc(Cl)cc(C(F)(F)F)c2)C1=O

>  <Tmax>
1 h

$$$$

----------
- test-method-notes: Phase 1a single-dose study in humans, Stage 1: pharmacokinetics
- Format: in vivo, human
- condition-context: both sexes, human, plasma, oral; Cohort 2 (100 mg); mean (SD); read-out: AUC0-24

>  <structure-as-smiles>
NC(=O)[C@H]1CCN(c2ncnc(N)c2F)C[C@@H]1N1CCC[C@@H](Nc2cc(Cl)cc(C(F)(F)F)c2)C1=O

>  <AUC(0-t)>
14500 ng·h/mL

$$$$

----------
- test-method-notes: Single-dose PK in monkey
- Assay type: in vivo
- condition-context: male, cynomolgus monkey, plasma, 1 mg/kg, IV, dose 1, 70% PEG400/H2O, free base measured
endpoint-name: AUC(0-inf) (ng·h/mL)

>  <structure-as-smiles>
NC(=O)[C@H]1CCN(c2ncnc(N)c2F)C[C@@H]1N1CCC[C@@H](Nc2cc(Cl)cc(C(F)(F)F)c2)C1=O

>  <observed-result>
1920

$$$$

----------
- test-method-notes: Single-dose PK in dog
- Format: in vivo, male beagle dogs
- condition-context: male, beagle, plasma, 5 mg/kg, PO, dose not given, 0.1% CMC/0.2% Tween, free base measured

>  <compound>
NC(=O)[C@H]1CCN(c2ncnc(N)c2F)C[C@@H]1N1CCC[C@@H](Nc2cc(Cl)cc(C(F)(F)F)c2)C1=O [Compound 2]

>  <Cmax [ng/mL]>
2970

$$$$

----------
- test-method-notes: Single-dose PK in monkey
- Format: in vivo
- condition-context: male, cynomolgus monkey, plasma, 5 mg/kg, PO, dose 5, 0.1% CMC/0.2% Tween, free base measured
endpoint-name: Cmax (ng/mL)

>  <structure-as-smiles>
NC(=O)[C@H]1CCN(c2ncnc(N)c2F)C[C@@H]1N1CCC[C@@H](Nc2cc(Cl)cc(C(F)(F)F)c2)C1=O

>  <observed-result>
1400

$$$$

----------
- test-method-notes: Single-dose PK in rat
- Format: in vivo, male Sprague Dawley rats
- condition-context: male, Sprague Dawley, plasma, 5 mg/kg, PO, dose 5, 0.1% CMC/0.2% Tween, read-out: % F (oral bioavailability)
endpoint-name: bioavailability

>  <molecule>
NC(=O)[C@H]1CCN(c2ncnc(N)c2F)C[C@@H]1N1CCC[C@@H](Nc2cc(Cl)cc(C(F)(F)F)c2)C1=O [Compound 2]

>  <endpoint-name>
bioavailability

>  <observed-result>
18%

$$$$

----------
- measured-target: CYP3A4 (Homo sapiens, UniProt P08684)
- Construct: from tissue; host or cells: human subjects in vivo
- Sequence (P08684 whole entry): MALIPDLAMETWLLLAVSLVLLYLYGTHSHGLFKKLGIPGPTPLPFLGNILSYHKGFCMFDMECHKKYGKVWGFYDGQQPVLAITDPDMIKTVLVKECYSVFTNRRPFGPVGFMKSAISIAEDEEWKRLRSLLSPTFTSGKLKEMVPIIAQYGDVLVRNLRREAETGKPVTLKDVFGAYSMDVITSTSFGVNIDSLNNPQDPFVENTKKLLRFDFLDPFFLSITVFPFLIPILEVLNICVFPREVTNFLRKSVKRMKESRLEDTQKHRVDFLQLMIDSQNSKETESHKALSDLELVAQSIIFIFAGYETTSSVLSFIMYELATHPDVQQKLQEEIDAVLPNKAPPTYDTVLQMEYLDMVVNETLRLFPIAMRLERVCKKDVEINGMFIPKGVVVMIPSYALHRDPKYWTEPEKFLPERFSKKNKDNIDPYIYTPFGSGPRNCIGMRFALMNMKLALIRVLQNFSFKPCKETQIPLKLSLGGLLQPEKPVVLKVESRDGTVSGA
- test-method-notes: Phase 1a study Stage 3: drug-drug interaction with itraconazole (effect of CYP3A4 inhibition)
- Type: in vivo
- condition-context: human, plasma, oral; Compound 2 25 mg fasted, N = 12; median (min, max)
endpoint-name: Tmax

>  <molecule>
NC(=O)[C@H]1CCN(c2ncnc(N)c2F)C[C@@H]1N1CCC[C@@H](Nc2cc(Cl)cc(C(F)(F)F)c2)C1=O [Compound 2]

>  <endpoint-name>
Tmax

>  <observed-result>
1 h

$$$$
